Quick list: FOB Fold Over Background per entry.
# measured-target: T1, human TREM2 on BWZ cells (human, UniProt Q9NZC2 19-230)
# T1 construct: whole, on cells; not tied to the cell line; also called BWZ Human TREM2
# T1 sequence (looked up): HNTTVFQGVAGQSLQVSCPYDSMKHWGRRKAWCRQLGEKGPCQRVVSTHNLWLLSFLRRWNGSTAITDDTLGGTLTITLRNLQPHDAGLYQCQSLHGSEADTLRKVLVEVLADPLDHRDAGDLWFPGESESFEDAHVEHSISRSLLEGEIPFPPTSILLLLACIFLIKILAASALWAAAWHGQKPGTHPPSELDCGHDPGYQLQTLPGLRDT
# assay: FACS, BWZ human TREM2
# value in fold; strip the unit string

Reference set, count: 2
{"binder": "T1-19 (antibody, IgG1, V domains shown, huIgG1; also called TI-19; ADI-19086) VH: EVQLVESGGGLVQPGGSLRLSCAASGFTFSDHHMDWVRQAPGKGLEWVGRTRNKANSYTTEYAASVKGRFTISRDDSKNSLYLQMNSLKTEDTAVYYCARGPLGYKLWGQGTLVTVSS VL: DIQMTQSPSSVSASVGDRVTITCRASQGISSWLAWYQQKPGKAPKLLIYAASNLQSGVPSRFSGSGSGTDFTLTISSLQPEDFATYYCQQANSFPLTFGGGTKVEIK", "FOB Fold Over Background (fold)": 0.5}
{"binder": "T1-54 (antibody, IgG1, V domains shown, huIgG1; also called TI-54; ADI-19129) VH: QVQLVQSGAEVKKPGSSVKVSCKASGGTFSSYAISWVRQAPGQGLEWMGGIIPIFGTANYAQKFQGRVTITADESTSTAYMELSSLRSEDTAVYYCARHWYALGSFDIWGQGTMVTVSS VL: EIVMTQSPATLSLSPGERATLSCRASQSVSSYLAWYQQKPGQAPRLLIYDSSNRATGIPARFSGSGSGTDFTLTISSLEPEDFAVYYCQQHDVWPITFGGGTKVEIK", "FOB Fold Over Background (fold)": 1.1}

Q. Consider the binder T1-24 (antibody, IgG1, V domains shown, huIgG1; also called TI-24; ADI-19150) VH: EVQLVESGGGLVQPGRSLRLSCAASGFTFDDYAMHWVRQAPGKGLEWVSGITWNSGSIGYADSVKGRFTISRDNAKNSLYLQMNSLRAEDTALYYCAKGPRLLSALDVWGQGTMVTVSS VL: DIQMTQSPSTLSASVGDRVTITCRASQSISSWLAWYQQKPGKAPKLLIYKASSLESGVPSRFSGSGSGTEFTLTISSLQPDDFATYYCQQDSIYPITFGGGTKVEIK and give its measured FOB Fold Over Background.
A. 1.4

Entry source: patent US11472877
